# Tested on: CAKI-1 renal
# assayNotes: NCI-60 one-dose screen, 48 h (100 = growth as untreated, 0 = no growth, -100 = all killed)
# statedConditions: 10 µM unless noted
About 83,000 compounds went through this panel and 20% of them were active in at least one assay; those are over-represented in the sample as a whole.
We'd kindly ask you to apply these growth classes: 1: < 50%; 2: ≥ 50% and < 90%; 3: ≥ 90%

compound	category
Cc1ccc(C(=O)NCCCNc2nccc(-n3ccc4cccnc43)n2)cc1	3

Task: Please classify: `COc1ccc(-c2cc3c(OC)c(OC)c(OC)cc3oc2=O)cc1`
Result: 2

Task: Please classify: `COc1ccc(Cn2cc3c(c2-c2cc(OC)c(OC)c(OC)c2)CCc2cnoc2-3)cc1`
Result: 1

Task: Please classify: `c1ccc(Nc2nc(Nc3ccccc3)nc(Nc3ccccc3)n2)cc1`
Result: 2

Task: Please classify: `COC1=C(OC)C(=O)C(CCCCCCCCCC[P+](c2ccccc2)(c2ccccc2)c2ccccc2)=C(C)C1=O`
Result: 1

* * *

# System: CAKI-1 renal
# assayNotes: NCI-60 one-dose screen, 48 h (100 = growth as untreated, 0 = no growth, -100 = all killed)
# statedConditions: 10 µM unless noted
About 83,000 compounds went through this panel and 20% of them were active in at least one assay; those are over-represented in the sample as a whole. The source made the active and inactive calls. How the source made its calls: active means growth percent below 10; inactive means the rest.
quantity: growth

Check out these entries, answers already filled in.
compound	quantity	measurement
COC(=O)c1nc(-c2ccccc2)oc1S(=O)(=O)N1CCN(c2cccc(Cl)c2)CC1	growth	32.6% (inactive)
CC(C)(C)n1cc(-c2ccnc(NCCCNS(=O)(=O)c3ccc(F)cc3)c2)c(-c2cccc(O)c2)n1	growth	55% (inactive)
COc1ccc(/C=C/c2c(C(C)=O)c(C)nc3ccccc23)cc1	growth	81.4% (inactive)
CCCCCCN1CSC(=S)N(CCCCCC)C1	growth	81.3% (inactive)
O=C(Nc1cccc(-n2cc(-c3ccncc3)c(-c3ccc(Cl)c(O)c3)n2)c1)Nc1ccc(Cl)c(Cl)c1	growth	22.5% (inactive)

For each of the items listed, what is its growth?
1. N[C@H]1CN(C(=O)c2cc3cc(Br)c(F)c(F)c3[nH]2)C[C@@H]1O
2. COc1ccc(Nc2[nH]n3c(=O)cc(C)nc3c2C(N)=O)c(OC)c1

Result:
79.4% (inactive)
90.2% (inactive)

For each of the items listed, what is its growth?
1. COc1cc(C2CC(c3ccc4c(c3)OCO4)=NN2C(C)=O)cc(OC)c1OC (stereo not given)
2. Cc1nn(-c2ccc(Cl)cc2)c2ncnc(N/N=C/c3cccc([N+](=O)[O-])c3)c12
3. O=C1c2ccccc2-c2ccccc2C1(Cl)Cl

Result:
2.4% (active)
76.4% (inactive)
-92.1% (active)

* * *

# System: NCI-H23 lung
# assayNotes: NCI-60 one-dose screen, 48 h (100 = growth as untreated, 0 = no growth, -100 = all killed)
# statedConditions: 10 µM unless noted
About 83,000 compounds went through this panel and 20% of them were active in at least one assay; those are over-represented in the sample as a whole.
quantity: growth (%)
Answers are plain numbers, in %.

Check out these entries, answers already filled in.
molecule	unitOfMeasure	growth
COc1cc([N+](=O)[O-])c2ncccc2c1O	%	-9.28
COc1ccc(C(=O)NC(=O)Nc2cc3c(cc2F)/C(=C/c2[nH]c(C)c(CCC(=O)O)c2C)C(=O)N3)c(F)c1	%	41.3
Clc1cc(Cl)cc(-c2ccc(-c3ccc(/C=N/NC4=NCCN4)cc3)s2)c1	%	39.1

For each of the items listed, what is its growth?
1. CCC(=O)Oc1ccc(/C(=C(/C)Cc2cccc(OC)c2)c2ccc(OCCN(C)C)cc2)cc1
2. Fc1ccc(CNCCNc2ncnc3c2cnn3-c2ccccc2)cc1

Result:
1: 94.2; 2: 103

For each of the items listed, what is its growth?
1. ClC(Cl)c1nc(-c2cccnc2)n2nc(-c3ccccc3)cc2n1
2. N#Cc1ccc(N2Cc3ccccc3OC3=C2C(=O)c2c(O)ccc(O)c2C3=O)cc1
3. C[n+]1c(/C=C/c2c(O)ccc3ccccc23)ccc2ccccc21
4. C=C[C@@H]1C[C@@H]2Cc3cc(F)ccc3N1O2
5. COc1cccc(/C=C2\Oc3cc(OCCCN4CCCC4)ccc3C2=O)c1OC

Result:
1: -39.3; 2: 14.2; 3: 37.2; 4: 103; 5: 96.8

* * *

# System: PC-3 prostate
# assayNotes: NCI-60 one-dose screen, 48 h (100 = growth as untreated, 0 = no growth, -100 = all killed)
# statedConditions: 10 µM unless noted
# Description: Growth inhibition of the PC-3 human tumor cell line is measured as a screen for anti-cancer activity. Cells are grown in 96 well plates and exposed to the test compound for 48 hours. Compounds are tested at a single concentration, which is 10^-5 M for most compounds. The reported endpoint is percent growth (GI% or GIPRCNT), where numbers from 0 - 100% represent growth inhibition, and numbers from -100% - 0 represent cell death. For example, a value of 40 represents 60% growth inhibition. […]
This is part of a sample that, as a whole, favours compounds with a hit. Of some 83,000 tested, about 20% had one in any assay.
So I've got a bunch of compounds here, and I need their growth values.
Answers are plain numbers, in %.

Check out these entries, answers already filled in.
compound	growth (%)
COc1ccc(-n2c(-c3ccccc3)c(-c3ccccc3)c3c(SCC(=O)N/N=C/c4ccc(Cl)cc4)ncnc32)cc1	83.3
N#Cc1c(Nc2ccccc2)nc2n(c1=O)-c1ccccc1Sc1ccccc1-2	61.3
Clc1cc(Cl)cc(-c2ccc(-c3ccc(/C=N/NC4=NCCN4)cc3)s2)c1	35.1
c1ccc(-c2cn(-c3ccccc3)c(-c3ccccc3)n2)cc1	59.5
O=C1/C(=C/c2ccccc2)Oc2ccc(O)c(I)c21	89.6
Fc1ccc(-c2nc(-c3nc4ncccc4[nH]3)cc3c2[nH]c2ccccc23)cc1F	73.3
CC(=O)OC[C@]12CC[C@H]3[C@@H](C[C@H]4O[C@]45CC=CC(=O)[C@]35C)[C@]1(O)CC[C@@]2(O)[C@@](C)(O)C1CC(C)=C(C)C(=O)O1 (some centres undefined)	2.94
COc1cc(-c2nn(-c3cccc(NC(=O)c4cccc(C(F)(F)F)c4)c3)cc2-c2ccncc2)ccc1Cl	4.39

Consider now this further compound.
Task: Lab note: record growth of `O=S(=O)(NCCCNc1nccc(-n2ccc3cccnc32)n1)c1cccc(C(F)(F)F)c1` tested on PC-3 prostate.
Result: 103

* * *

# System: SR leukemia
# assayNotes: NCI-60 one-dose screen, 48 h
# statedConditions: 10 µM unless noted
The panel holds about 83,000 compounds, 20% with a hit somewhere; the sample as a whole holds those more often. Active and inactive are the calls of the source. Rule for the calls: active = growth percent below 10; inactive = the rest.
Pick one: active, inactive

Sample answers from the record:
molecule	category
COc1ccc(-c2nc(-c3nc4cc(C)c(C)cc4[nH]3)cc3c2[nH]c2ccccc23)cc1	active
Cc1ccc(S(=O)(=O)NCCCNc2cc(-c3cn(C(C)(C)C)nc3-c3cccc(O)c3)ccn2)cc1	inactive
O=[N+]([O-])c1ccc(-c2cn(-c3ccccc3)c(-c3ccccc3)n2)cc1	inactive
CC(C)C(C(=O)NCCN1CCOCC1)N1C(=O)/C(=C/c2ccc(Br)cc2)SC1=S (stereo unspecified)	inactive
O=c1cc(Cc2ccc([N+](=O)[O-])cc2)[nH]c(=O)[nH]1	inactive
Cc1cccc(/C=N/Nc2cc(C)c3cccc(C)c3n2)n1	inactive

Task: I'd appreciate the recorded outcome for `CCOC(=O)NNC(=S)Nc1ccccc1` from this test.
Result: inactive

Task: I'd appreciate the recorded outcome for `N/C(=N\C(N)=N\c1nc2ccccc2s1)c1cccc(Br)c1` from this test.
Result: inactive

Task: I'd appreciate the recorded outcome for O=S1(=O)CCC(N(/N=C/c2ccco2)c2ccccc2)C1 (stereo unspecified) from this test.
Result: inactive

Task: I'd appreciate the recorded outcome for `COc1ccc(/C=C2\Oc3cc(OCCCN4CCCC4)ccc3C2=O)cc1` from this test.
Result: active

Task: I'd appreciate the recorded outcome for `COc1cccc(/C=C/C(=O)Nc2cc(OC)c3c(c2)OCO3)c1` from this test.
Result: inactive

* * *

# System: UACC-62 melanoma
# assayNotes: NCI-60 one-dose screen, 48 h
# statedConditions: 10 µM unless noted
The panel holds about 83,000 compounds, 20% with a hit somewhere; the sample as a whole holds those more often. Active and inactive are the calls of the source. The calls were made as follows: active = growth percent below 10; inactive = the rest.
Pick one: active, inactive

compound	studySystem	category
C=C(C)[C@@H]1CC[C@]2(C(=O)O)CC[C@]3(C)[C@H](CC[C@@H]4[C@@]5(C)C[C@@H](CC#Cc6ccc(C(F)(F)F)cc6)[C@H](O)C(C)(C)[C@@H]5CC[C@]43C)[C@@H]12	UACC-62 melanoma	active
CCO/C=N/C1=C(C#N)C(c2ccc(Cl)cc2)c2c(c3ccc(C)cc3[nH]c2=O)O1 (centres undefined)	UACC-62 melanoma	inactive
O=C(O)c1nc(-c2ccccc2)oc1N1CCOCC1	UACC-62 melanoma	inactive
CN(C)c1nc2c(N)ncnc2n1C1OC(CO)C(O)C1O (centres undefined)	UACC-62 melanoma	inactive
Clc1cc(Cl)c2nc(-c3ccc(-c4ccc(/C=N/NC5=NCCN5)cc4)s3)cn2c1	UACC-62 melanoma	inactive
COc1ccc2c(c1)C(c1cc(OC)c3c(c1)OCO3)C1=C(COC1=O)N2 (centres undefined)	UACC-62 melanoma	inactive
O=[N+]([O-])c1cccc(-c2nc3sccn3c2-c2ccnc(NCCCNS(=O)(=O)c3ccc(Cl)cc3)n2)c1	UACC-62 melanoma	active
O=C(NCCCNc1nccc(-n2ccc3cccnc32)n1)c1c(F)cccc1F	UACC-62 melanoma	inactive
O=c1cc/c(=N\Nc2ccccc2)c(=O)/c1=N/Nc1ccccc1	UACC-62 melanoma	inactive
COc1ccc(C2=Nn3c(nnc3-n3nc(C)cc3C)SC2)cc1	UACC-62 melanoma	inactive

Task: I'd appreciate the recorded outcome for `c1ccc(-c2cn(-c3ccccc3)c(-c3ccccc3)n2)cc1` from this test.
Result: inactive

Task: I'd appreciate the recorded outcome for `Cc1cc(N/N=C/c2nc(-c3ccccc3)oc2C)c2cc(Br)ccc2n1` from this test.
Result: inactive

Task: I'd appreciate the recorded outcome for `N#Cc1ccc(N2Cc3ccccc3OC3=C2C(=O)c2c(O)ccc(O)c2C3=O)cc1` from this test.
Result: active

Task: I'd appreciate the recorded outcome for `COc1ccc2c(c1)cn1c3ccc(OC)cc3[nH]c(=O)c21` from this test.
Result: inactive
